# Tested on: A549
# experiment.summary: Antiproliferative activity against human A549 cells by sulforhodamine B assay
# Assay type: functional
Recorded GI50, one value per entry.

smiles.text	result
C=C1[C@H]2C[C@@H]3C4N5C[C@]6(C)CCC[C@@]47[C@@H]6[C@@H]5C[C@]3([C@@H]1O)[C@H]7[C@H]2OC(=O)c1cccnc1	> 20 µM
C=C1[C@H]2C[C@@H]3C4N5C[C@]6(C)CCC[C@@]47[C@@H]6[C@@]5(O)C[C@]3([C@@H]1OC(=O)CC)[C@H]7[C@H]2OC(=O)CC	> 20 µM

Problem: Quick one: GI50 of C=C1[C@H]2C[C@@H]3C4N5C[C@]6(C)CCC[C@@]47[C@@H]6[C@@H]5C[C@]3([C@@H]1OC(=O)c1ccc([N+](=O)[O-])cc1)[C@H]7[C@H]2OC(=O)c1ccc([N+](=O)[O-])cc1 ?
Solution: 6.9 µM

Problem: Consider the compound CCN1C[C@]2(COC)CC[C@H](O)[C@]34C1[C@@H]([C@H](OC)[C@H]23)[C@@]1(O)C[C@H](OC)[C@H]2C[C@@H]4[C@@H]1[C@H]2OC(=O)c1ccccc1 and give its measured GI50.
Solution: > 20 µM

Problem: Quick one: GI50 of CCN1C[C@]2(COC)CC[C@H](OC(=O)c3ccc([N+](=O)[O-])cc3)[C@]34C1[C@@](O)([C@@H](OC)[C@H]23)[C@@]1(O)C[C@H](OC)[C@H]2C[C@@H]4[C@@H]1[C@H]2O ?
Solution: > 20 µM

----------
# System: A549
# experiment.summary: Antiproliferative activity against human A549 cells by sulforhodamine B assay
# Type: functional
result.type: GI50

Worked set:
smiles.text	target.desc	GI50
C=C1[C@H]2C[C@@H]3C4N5C[C@]6(C)CCC[C@@]47[C@@H]6[C@@]5(O)C[C@]3([C@@H]1OC(=O)c1cccc([N+](=O)[O-])c1)[C@H]7[C@H]2OC(=O)c1cccc([N+](=O)[O-])c1	A549	5 µM
C=C1[C@H]2C[C@@H]3C4N5C[C@]6(C)CCC[C@@]47[C@@H]6[C@@H]5C[C@]3([C@@H]1O)[C@H]7[C@H]2OC(=O)c1ccc(OC)cc1	A549	> 20 µM

Next:
Problem: State the recorded GI50 for this entry: CCN1C[C@]2(COC)[C@H](O)C[C@H](O)[C@]34C1[C@@](O)([C@@H](O)[C@H]23)[C@@]1(O)C[C@H](OC)[C@H]2C[C@@H]4[C@@H]1[C@H]2O
Solution: > 20 µM

----------
Entries and their GI50
# System: A549
# experiment.summary: Antiproliferative activity against human A549 cells by sulforhodamine B assay
# Assay type: functional
# unit: µM | format: bare number

smiles.text	target.desc	result.type	numeric.value
C=C1[C@H]2C[C@H]3C4N5C[C@]6(C)CCC[C@]47[C@H]([C@H]2OC(=O)c2ccccc2)C3(C[C@]5(OC(=O)c2ccccc2)[C@H]67)[C@@H]1O	A549	GI50	10

Next item in the queue.
Problem: Which value of GI50 has been reported for C=C1[C@H]2C[C@@H]3C4N5C[C@]6(C)CCC[C@@]47[C@@H]6[C@@H]5C[C@]3([C@@H]1OC(=O)c1ccc(F)cc1)[C@H]7[C@H]2OC(=O)c1ccc(F)cc1 in the records?
Solution: 8.1

----------
The reader will find reported GI50 values listed item by item below.
# experiment.summary: Antiproliferative activity against multidrug-resistant P-gp expressing human KBVIN cells by sulforhodamine B assay
# Format: functional

Reference set (4 entries):
molecule	GI50
C=C1[C@H]2C[C@@]3([C@@H]1O)[C@@H](C[C@@H]2O)[C@@]12C4[C@@H]3C[C@@H]1[C@@](C)(CC[C@@H]2OC(C)=O)CN4CC	> 20 µM
CCN1C[C@]2(COC(=O)c3ccccc3N)CC[C@H](OC)[C@]34C1[C@@](O)([C@@H](OC)[C@H]23)[C@@]1(O)C[C@H](OC)[C@H]2C[C@@H]4[C@@H]1[C@H]2OC(C)=O	> 20 µM
C=C1[C@@H](O)[C@]23C[C@@H]1[C@@H](OC(=O)c1ccccc1)C[C@H]2[C@@]12C4C3C[C@@H]1[C@@](C)(CC[C@H]2O)CN4CC	> 20 µM
C=C1[C@H]2C[C@@H]3C4N5C[C@]6(C)CCC[C@@]47[C@@H]6[C@@]5(OC(=O)c4ccc(OC)c(OC)c4)C[C@]3([C@@H]1OC(=O)c1ccc(OC)c(OC)c1)[C@H]7[C@H]2O	10 µM

Problem: Suppose we examine the molecule C=C1[C@H]2C[C@@]3([C@@H]1OC(C)=O)[C@@H](C[C@@H]2O)[C@@]12C4[C@@H]3C[C@@H]1[C@@](C)(CC[C@@H]2O)C[N+]4([O-])CC (stereo partly specified) ; what GI50 value has been reported?
Solution: > 20 µM

Problem: Item under review: C=C1[C@H]2C[C@@H]3C4N5C[C@]6(C)CCC[C@@]47[C@@H]6[C@@H]5C[C@]3([C@@H]1O)[C@H]7[C@H]2OC(=O)c1ccc(C(F)(F)F)cc1 . Reported GI50?
Solution: 10 µM

Problem: Need GI50 of C=C1[C@H]2C[C@@H]3C4N5C[C@]6(C)CCC[C@@]47[C@@H]6[C@@H]5C[C@]3([C@@H]1O)[C@H]7[C@H]2OC(=O)c1ccc([N+](=O)[O-])cc1 , thanks.
Solution: 10 µM

Problem: So what does the record say about GI50 for C=C1[C@H]2C[C@@H]3C4N5C[C@]6(C)CCC[C@@]47[C@@H]6[C@@H]5C[C@]3([C@@H]1OC(=O)c1ccccc1)[C@H]7[C@H]2O ?
Solution: > 20 µM

Problem: Fill blank: measured GI50 of the molecule C=C1[C@@H](O)[C@]23C[C@@H]1[C@@H](OC(=O)c1ccc(OC)cc1)C[C@H]2[C@@]12C4C3C[C@@H]1[C@@](C)(CC[C@H]2O)CN4CC is ____.
Solution: > 20 µM

Problem: Would you mind telling me what GI50 value was observed for C=C1[C@H]2C[C@H]3C4N5C[C@]6(C)CCC[C@]47[C@H]([C@H]2OC(=O)c2ccc(OC)cc2)C3(C[C@]5(O)[C@H]67)[C@@H]1O ?
Solution: 10 µM

Problem: I would be grateful if you could share the reported GI50 for COC[C@@]12CC[C@H](OC)[C@]34C(C([C@H](OC)[C@H]13)[C@]1(OC(C)=O)[C@H]3[C@@H](OC(=O)c5ccccc5)[C@](O)(C[C@H]34)[C@@H](OC)[C@@H]1O)N(C)C2 .
Solution: > 20 µM

Problem: Report GI50 for C=C1[C@H]2C[C@@]3([C@@H]1OC(C)=O)[C@@H](C[C@@H]2OC(=O)c1ccccc1)[C@@]12C4[C@@H]3C[C@@H]1[C@@](C)(CC[C@@H]2O)CN4CC please.
Solution: > 20 µM

Problem: Would you kindly share the measured GI50 for CO[C@H]1[C@@H]2C[C@@H]3[C@H]1[C@](O)(C[C@@H]2OC)[C@@]1(O)C2NC(=O)[C@]4(COC(=O)c5ccccc5N)CC[C@H](OC)[C@@]23[C@@H]4[C@@H]1OC ?
Solution: > 20 µM

Problem: Find the recorded GI50 belonging to CCN1C[C@]2(C)CC[C@H](OC)[C@@]34[C@@H]5C[C@H]6[C@H](O)[C@@H]5[C@@]5(C[C@@H]6OC)OCO[C@@]5(C(=O)[C@H]23)[C@@H]14 and report it.
Solution: > 20 µM

Problem: I have this molecule here, C=C1[C@H]2C[C@@H]3C4N5C[C@]6(C)CCC[C@@]47[C@@H]6[C@@]5(O)C[C@]3([C@@H]1OC(=O)c1ccc([N+](=O)[O-])cc1)[C@H]7[C@H]2O , and I need its recorded GI50.
Solution: > 20 µM

Problem: Can you share its GI50? I mean this molecule: C=C1[C@H]2C[C@H]3C4N5C[C@]6(C)CCC[C@]47[C@H]([C@H]2O)C3(CC5[C@H]67)[C@@H]1O
Solution: > 20 µM

Problem: Name the recorded GI50 for C=C1[C@H]2C[C@@H]3C4N5C[C@]6(C)CCC[C@@]47[C@@H]6[C@@H]5C[C@]3([C@@H]1OC(=O)c1ccc(F)cc1)[C@H]7[C@H]2OC(=O)c1ccc(F)cc1 .
Solution: 7.1 µM

Problem: Dear colleague, I am looking for the recorded GI50 of the following molecule: CO[C@H]1[C@@H]2C[C@@H]3[C@H]1[C@](O)(C[C@@H]2OC)[C@@]1(O)C2N=C[C@]4(COC(=O)c5ccccc5N)CC[C@H](OC)[C@@]23[C@@H]4[C@@H]1OC
Solution: > 20 µM

Problem: I am curious: what GI50 value has been reported for C=C1[C@H]2C[C@@H]3C4N5C[C@]6(C)CCC[C@@]47[C@@H]6[C@@H]5C[C@]3([C@@H]1OC(C)=O)[C@H]7[C@H]2O ?
Solution: > 20 µM

Problem: Fill in: GI50 of C=C1[C@H]2C[C@H]3C4N(Cc5ccccc5)C[C@]5(C)CCC[C@]46[C@H]([C@H]2O)C3(CC(=O)[C@H]56)[C@@H]1O (stereo partly specified) is ___
Solution: > 20 µM

Problem: What does the data say about its GI50? Entry: CCN1C[C@]2(COC)[C@H](O)C[C@H](O)[C@]34C1[C@@](O)([C@@H](OC)[C@H]23)[C@@]1(O)C[C@H](OC)[C@H]2C[C@@H]4[C@@H]1[C@H]2O
Solution: > 20 µM
